Source: patent US11129827B2

Provide the reported IC50 of each item.
# test.target: FAAH (Homo sapiens (Human), UniProt O00519)
# procedure.summary: biochemical

Please review the following examples before continuing.
C[C@@H]1CN(Cc2cc(Cl)cc(Oc3ncccn3)c2)CCN1C(=O)Oc1cncc(C#N)c1: < 100 nM
Cc1c(C#N)cncc1OC(=O)N1CCN(Cc2cccc(C(F)(F)F)c2C)C[C@H]1C: < 100 nM
O=C(Oc1cncc(C(F)(F)F)c1)N1CCC2(CC1)CN(Cc1cccc(Oc3ccc(Cl)cc3)c1)C2: < 100 nM
O=C(Oc1cncc(C(F)(F)F)c1)N1CCC2(CC1)CC(Oc1cccc(COc3ccc(Cl)cc3)c1)C2: < 100 nM
O=C(Oc1cncc(C(F)(F)F)c1)N1CCC2(CC1)CN(Cc1ccc(Oc3cccc(Cl)c3)cc1)C2: 1000 to 10000 nM

Hi team, please reply with IC50 for each item in this list.
1. CC(C)Oc1cc(CN2CCN(C(=O)Oc3cncc(NS(C)(=O)=O)c3)CC2)ccc1Cl
2. Cc1c(CN2CCN(C(=O)Oc3cncc(C(N)=O)c3)[C@H](C)C2)cccc1C(F)(F)F
3. O=C(Oc1cncc(C(F)(F)F)c1)N1CCC2(CC1)CN(Cc1ccc(Oc3ccc(Cl)cc3)cc1)C2
4. C[C@@H]1CN(Cc2cccc(OC(F)(F)F)c2)CCN1C(=O)Oc1cncc(C(N)=O)c1

1: < 100 nM; 2: < 100 nM; 3: 1000 to 10000 nM; 4: < 100 nM

Form field: reported IC50 of "O=C(Oc1cncc(C(F)(F)F)c1)N1CCC2(CC1)CN(Cc1ccc(Oc3cncnc3)cc1)C2"
1000 to 10000 nM
